Test system: BaF3
Test: Antiproliferative activity against mouse BAF3 cells
Type: functional, cell-based
assay.readout: pEC50
The read-out pEC50 is expressed as -log10 of concentration in moles per litre.

[
  {
    "query.smiles": "CCN1CCN(Cc2ccc(NC(=O)c3ccc(C)c(C#Cc4cccnc4)c3)cc2C(F)(F)F)CC1",
    "tested.on": "BaF3",
    "assay.readout": "pEC50",
    "measurement": 5.80
  },
  {
    "query.smiles": "CCN1CCN(Cc2ccc(NC(=O)c3ccc(C)c(C#Cc4ccc(NC(=O)C5CC5)nc4)c3)cc2C(F)(F)F)CC1",
    "tested.on": "BaF3",
    "assay.readout": "pEC50",
    "measurement": 5.74
  },
  {
    "query.smiles": "CCN1CCN(Cc2ccc(NC(=O)c3ccc(C)c(C#Cc4cnc5[nH]cnc5c4)c3)cc2C(F)(F)F)CC1",
    "tested.on": "BaF3",
    "assay.readout": "pEC50",
    "measurement": 7.22
  }
]

In the following, a different compound is considered.
Task: Consider the compound shown here: Cc1cn(-c2cc(NC(=O)c3cccc(C#Cc4cnc5[nH]ccc5c4)c3)cc(C(F)(F)F)c2)cn1 What is its recorded pEC50?
Output: 5.55

Values were extracted from ChEMBL document CHEMBL1177794.
